test system: SK-MEL-5 melanoma; test: NCI tumour cell line growth inhibition, 48 h
readout: log10 of TGI (log10 of the value in µM)

{"compound": "O=S(=O)(CCCl)c1ccc(Cl)cc1", "readout": "log10 of TGI", "value": 1.31}
{"compound": "CC(C)(C)c1cc(C=C(C#N)C#N)cc(C(C)(C)C)c1O", "readout": "log10 of TGI", "value": 0.49}
{"compound": "Cc1cnc2c(c1)C(=O)C1=C(C2=O)C2OC(=O)CC2OC1(C)C (stereo not given)", "readout": "log10 of TGI", "value": 0.00}
{"compound": "CCOC(=O)c1nc2cc(C(F)(F)F)ccc2nc1Nc1ccc(C(=O)NC(C(=O)OCC)C(=O)OCC)cc1", "readout": "log10 of TGI", "value": 1.73}
{"compound": "C=C1C(=O)O[C@H]2[C@H]1CC/C(COC(=O)NCC(C)c1ccc(CC(C)C)cc1)=C\\CC[C@@]1(C)O[C@@H]21 (stereo not given in full)", "readout": "log10 of TGI", "value": 0.91}
{"compound": "O=C1NCN(c2ccccc2)C12CCN(CCCN1CCN(CCOC(c3ccc(F)cc3)c3ccc(F)cc3)CC1)CC2", "readout": "log10 of TGI", "value": 0.49}

---

test system: HS 578T breast; test: NCI tumour cell line growth inhibition, 48 h
# maps each entry to its TGI

{"compound": "CO[C@]12C[C@H](CNC(=O)c3ccc[nH]3)O[C@H]1NC(=O)N2", "TGI": "> 100 µM"}
{"compound": "COc1ccc(OC)c(Cn2cc3c(c2-c2ccccc2)CCc2cnoc2-3)c1", "TGI": "> 100 µM"}
{"compound": "Cc1cnc2c(c1)C(=O)C1=C(C2=O)C2OC(=O)CC2OC1(C)C (stereo not drawn)", "TGI": "0.693 µM"}
{"compound": "Cc1cc(N(CCC#N)CCC#N)ccc1/C=C(\\NC(=O)/C=C/c1ccccc1)C(=O)NN", "TGI": "77.5 µM"}
{"compound": "COc1cc2c(cc1Cc1c(F)cccc1Cl)nc(-c1c(F)cccc1Cl)n2Cc1c(F)cccc1Cl", "TGI": "> 100 µM"}
{"compound": "C(=N\\Nc1nnn(Cc2ccccc2)n1)/c1ccccc1", "TGI": "> 89.6 µM"}
{"compound": "COC(=O)C1(C)Cc2cc(OC(C)=O)c(OC(C)=O)cc2N1 (stereo not drawn)", "TGI": "> 24.1 µM"}
{"compound": "COc1cc(/C=C/C=C2\\CC/C(=C\\C=C\\c3ccc(O)c(OC)c3)C2=O)ccc1O", "TGI": "> 100 µM"}
{"compound": "COC(=O)C1=Nc2c(C)nn(-c3ccccc3)c2N=C(c2ccccc2)C1", "TGI": "> 10 µM"}
{"compound": "COc1cnc2c(c1)C(=O)c1c-2n(CCCN2CCN(C)CC2)c(=O)c2cc([N+](=O)[O-])ccc12", "TGI": "31 µM"}
{"compound": "CN(C)C(=O)O[C@H]1CN[C@H](C#Cc2cc3ncnc(Nc4ccc(OCc5cccc(F)c5)c(Cl)c4)c3s2)C1", "TGI": "> 25 µM"}
{"compound": "COc1c(O)c2c(=O)cc(OC)c3c4c(OC)cc(=O)c5c(O)c(OC)c6c(c(c1C(C(C)O)C6C(C)O)c23)c54 (stereo not drawn)", "TGI": "6.07 µM"}
{"compound": "CC(=O)OC1C(COC(=O)c2ccccc2)OC(Nc2ncc(-c3ccc(Br)cc3)s2)C(OC(=O)c2ccccc2)C1OC(=O)c1ccccc1 (stereo not drawn)", "TGI": "> 100 µM"}
{"compound": "CCOP(=O)(/C=C\\n1ccc(N)nc1=O)OCC", "TGI": "> 100 µM"}
{"compound": "CCNC(=O)c1noc(-c2cc(C(C)C)c(O)cc2O)c1-c1ccc(CN2CCOCC2)cc1", "TGI": "56.9 µM"}
{"compound": "CN(C)CC1CCC(CN(C)C)C1=O (stereo not drawn)", "TGI": "10.2 µM"}
{"compound": "O=S(=O)(CCCl)c1ccc(Cl)cc1", "TGI": "19.2 µM"}
{"compound": "CCOC(=O)c1cn2c(n1)sc1cc(Cl)cc(Cl)c12", "TGI": "> 100 µM"}
{"compound": "C=C1C(=O)O[C@H]2[C@H]1CC/C(C=Nc1c(N)cc(C(F)(F)F)cc1Br)=C\\CC[C@@]1(C)O[C@@H]21", "TGI": "9.5 µM"}
{"compound": "O=S(=O)(NCCCNc1nccc(-c2c(-c3ccc(F)cc3)nc3sccn23)n1)c1ccc2ccccc2c1", "TGI": "> 100 µM"}
{"compound": "C=Cc1ccccc1C1(O)C=CC(OC)(OC)C=C1", "TGI": "> 100 µM"}
{"compound": "CC(=O)/C(=C/c1ccccc1F)C(=O)c1ccccc1", "TGI": "> 100 µM"}
{"compound": "COc1ccc(COCC[C@H](C)OC2OC(CO[Si](C)(C)C(C)(C)C)C(OC(=O)CCCN=[N+]=[N-])C(OC(=O)CCCN=[N+]=[N-])C2OC(=O)CCCN=[N+]=[N-])cc1 (stereo partly drawn)", "TGI": "> 100 µM"}
{"compound": "CC(NC(=O)N(C)C)NC(=O)N(C)C", "TGI": "> 10 µM"}
{"compound": "CC1(C)[C@H]2CC[C@@]13C(=O)N1C(=O)O[C@@H]([C@H]1Cl)C(Cl)(COCc1ccccc1)C(=O)OCCO[C@H]3C2 (stereo partly drawn)", "TGI": "> 100 µM"}
{"compound": "O=c1oc2ccc(I)cc2c(=O)n1-c1ccc(Cl)cc1F", "TGI": "8.66 µM"}
{"compound": "CC(C)(C)c1cc(C(=O)/C=C/c2ccc3c(c2)OCO3)cc(C(C)(C)C)c1O", "TGI": "> 27.1 µM"}
{"compound": "CC(=O)c1ccc2c(c1)CC1(C2)Cc2ccccc2C1=O (stereo not drawn)", "TGI": "> 100 µM"}
{"compound": "O=[N+]([O-])c1ccc2c(c1)C1=NN(c3ccccc3)C(c3ccccc3Br)C1CCC2 (stereo not drawn)", "TGI": "> 50 µM"}
{"compound": "COCCOCCOC1=CC(=O)c2c(O)ccc(O)c2C1=O", "TGI": "6.05 µM"}
{"compound": "CN(C)c1ccc(-c2ccc(-c3ccc(C(=N)N)cc3)s2)cc1", "TGI": "5.19 µM"}
{"compound": "NC(=O)N/N=C1\\CC2C3CC4C2C4C13 (stereo not drawn)", "TGI": "> 100 µM"}
{"compound": "CCCCn1c(-c2ccc([N+](=O)[O-])cc2)cs/c1=N/N=C1\\C(=O)Nc2ccc(Br)cc21", "TGI": "> 100 µM"}
{"compound": "COc1cc(NC(C)=O)ccc1C(=O)NN1C(=O)/C(=C/c2ccco2)N=C1c1ccccc1", "TGI": "> 50 µM"}
{"compound": "O=C1CCCCN1CCCCC#Cc1cccc(C#Cc2cccnc2)c1", "TGI": "> 100 µM"}
{"compound": "Nc1nn2c(=O)c3ccccc3nc2s1", "TGI": "> 100 µM"}
{"compound": "COc1ccc(CN2C3CC2CN(c2ccc(-c4cc(OCC(C)(C)O)cn5ncc(C#N)c45)cn2)C3)cn1", "TGI": "7.12 µM"}
{"compound": "COc1ccc(CC2COc3cc(O)cc(O)c3C2=O)cc1O (stereo not drawn)", "TGI": "> 100 µM"}

---

test system: SF-539 CNS; assay: NCI tumour cell line growth inhibition, 48 h; in the data active = GI50 below about 0.43 µM; inactive = the rest
Possible outcomes: 1 (active), -1 (inactive)

{"structureAsSmiles": "C=C1C[C@@H]2CC[C@@]34C[C@H]5O[C@H]6[C@@H](O3)[C@H]3O[C@H](CC[C@@H]3O[C@H]6[C@@H]5O4)CC(=O)C[C@@H]3[C@@H](OC)[C@@H](C[C@H](O)CN)O[C@H]3C[C@H]3O[C@@H](CC[C@@H]1O2)C[C@@H](C)C3=C", "targetEntity": "SF-539 CNS", "category": 1}
{"structureAsSmiles": "C=C1C(=O)O[C@H]2[C@H]1CC/C(C=Nc1c(N)cc(C(F)(F)F)cc1Br)=C\\CC[C@@]1(C)O[C@@H]21", "targetEntity": "SF-539 CNS", "category": -1}
{"structureAsSmiles": "CC(C)(C)C(=O)[CH-]C(=O)C(C)(C)C.CC(C)(C)C(=O)[CH-]C(=O)C(C)(C)C.CN(C)c1ccc([O-])cc1.CN(C)c1ccc([O-])cc1.[Ti+4]", "targetEntity": "SF-539 CNS", "category": -1}
{"structureAsSmiles": "CNC(=O)c1nn(C)c2c1C(C)(C)Cc1cnc(Nc3ccc(N4CCN(C)CC4)cc3)nc1-2", "targetEntity": "SF-539 CNS", "category": -1}

Hey, just so you know, these numbers are from PubChem BioAssay (NCI).
